Test system: Mycobacterium tuberculosis Erdman (autoluminescent)
Method summary: Einf, fitted maximum growth inhibition of three-drug combination (fraction); higher = stronger maximal inhibition
Recorded conditions: in vitro model: dormancy (butyrate + nitrate, low O2); time point: terminal (~4-5 doublings, model-specific)
Metric name: Einf

{"columns": ["Molecule", "Metric name", "Reading"],
 "data": [
  ["NNC(=O)c1ccncc1 [isoniazid] + O=[N+]([O-])c1cn2c(n1)OC[C@@H](OCc1ccc(OC(F)(F)F)cc1)C2 [pretomanid] + CO[C@H]1/C=C/O[C@@]2(C)Oc3c(C)c(O)c4c(O)c(c(/C=N/N5CCN(C)CC5)c(O)c4c3C2=O)NC(=O)/C(C)=C\\C=C\\[C@H](C)[C@H](O)[C@@H](C)[C@@H](O)[C@@H](C)[C@H](OC(C)=O)[C@@H]1C [rifampicin]", "Einf", 0.974]
]}

----------
System: Mycobacterium tuberculosis Erdman (autoluminescent)
Method summary: GRinf, maximum normalised growth rate inhibition (three-drug combination) (unitless (-1 to 1)); higher = less effect (negative = killing)
Recorded conditions: in vitro model: acidic pH 5.7; time point: terminal (~4-5 doublings, model-specific)
Threshold rule: GRinf greater than or equal to -0.3 is fulfilled; below that, not fulfilled.

{"columns": ["Compound", "Study target", "Cat"],
 "data": [
  ["COc1nc2ccc(Br)cc2cc1[C@@H](c1ccccc1)[C@@](O)(CCN(C)C)c1cccc2ccccc12 [bedaquiline] + O=[N+]([O-])c1cn2c(n1)OC[C@@H](OCc1ccc(OC(F)(F)F)cc1)C2 [pretomanid] + NC(=O)c1cnccn1 [pyrazinamide]", "Mycobacterium tuberculosis Erdman (autoluminescent)", "not fulfilled"],
  ["COc1nc2ccc(Br)cc2cc1[C@@H](c1ccccc1)[C@@](O)(CCN(C)C)c1cccc2ccccc12 [bedaquiline] + COc1c(N2C[C@@H]3CCCN[C@@H]3C2)c(F)cc2c(=O)c(C(=O)O)cn(C3CC3)c12 [moxifloxacin] + CO[C@H]1/C=C/O[C@@]2(C)Oc3c(C)c(O)c4c(O)c(c(/C=N/N5CCN(C)CC5)c(O)c4c3C2=O)NC(=O)/C(C)=C\\C=C\\[C@H](C)[C@H](O)[C@@H](C)[C@@H](O)[C@@H](C)[C@H](OC(C)=O)[C@@H]1C [rifampicin]", "Mycobacterium tuberculosis Erdman (autoluminescent)", "fulfilled"],
  ["CC[C@@H](CO)NCCN[C@@H](CC)CO [ethambutol] + CC(=O)NC[C@H]1CN(c2ccc(N3CCOCC3)c(F)c2)C(=O)O1 [linezolid] + CO[C@H]1/C=C/O[C@@]2(C)Oc3c(C)c(O)c4c(O)c(c(/C=N/N5CCN(C6CCCC6)CC5)c(O)c4c3C2=O)NC(=O)/C(C)=C\\C=C\\[C@H](C)[C@H](O)[C@@H](C)[C@@H](O)[C@@H](C)[C@H](OC(C)=O)[C@@H]1C [rifapentine]", "Mycobacterium tuberculosis Erdman (autoluminescent)", "fulfilled"],
  ["COc1nc2ccc(Br)cc2cc1[C@@H](c1ccccc1)[C@@](O)(CCN(C)C)c1cccc2ccccc12 [bedaquiline] + CC(=O)NC[C@H]1CN(c2ccc(N3CCOCC3)c(F)c2)C(=O)O1 [linezolid] + O=[N+]([O-])c1cn2c(n1)OC[C@@H](OCc1ccc(OC(F)(F)F)cc1)C2 [pretomanid]", "Mycobacterium tuberculosis Erdman (autoluminescent)", "not fulfilled"],
  ["NNC(=O)c1ccncc1 [isoniazid] + O=[N+]([O-])c1cn2c(n1)OC[C@@H](OCc1ccc(OC(F)(F)F)cc1)C2 [pretomanid] + NC(=O)c1cnccn1 [pyrazinamide]", "Mycobacterium tuberculosis Erdman (autoluminescent)", "not fulfilled"],
  ["CC(=O)NC[C@H]1CN(c2ccc(N3CCOCC3)c(F)c2)C(=O)O1 [linezolid] + NC(=O)c1cnccn1 [pyrazinamide] + CO[C@H]1/C=C/O[C@@]2(C)Oc3c(C)c(O)c4c(O)c(c(/C=N/N5CCN(C6CCCC6)CC5)c(O)c4c3C2=O)NC(=O)/C(C)=C\\C=C\\[C@H](C)[C@H](O)[C@@H](C)[C@@H](O)[C@@H](C)[C@H](OC(C)=O)[C@@H]1C [rifapentine]", "Mycobacterium tuberculosis Erdman (autoluminescent)", "fulfilled"]
]}
